# System: MOLT-4 leukemia
# Experimental protocol: NCI tumour cell line growth inhibition, 48 h
Reported TGI is given for each of the following molecules.
Measurement kind: TGI

{"columns": ["Molecule", "Measured result"],
 "data": [
  ["O=C1CCc2c(sc3[nH]c(=S)n(Cc4ccccc4)c(=O)c23)C1", "> 100 µM"],
  ["Cc1ccc(C)c(NC(=O)CCc2nc(=S)[nH][nH]2)c1", "> 100 µM"],
  ["Cc1nc2n(c(=O)c1CCN1CCC(c3noc4cc(F)ccc34)CC1)CCCC2", "> 50 µM"],
  ["c1ccc(COCC2OC3c4ccccc4COC3C2OCc2ccccc2)cc1 (stereo not given)", "> 100 µM"],
  ["Cc1ccc(S(=O)(=O)Oc2nc3ccccc3nc2N(S(=O)(=O)c2ccc(C)cc2)S(=O)(=O)c2ccc(C)cc2)cc1", "> 100 µM"]
]}

---

# Tested on: HL-60(TB) leukemia
# Experimental protocol: NCI tumour cell line growth inhibition, 48 h
TGI values, listed per item

{"columns": ["Molecule", "Inequality sign", "TGI, µM"],
 "data": [
  ["CCCCC(=O)Oc1ccc2c(C)cc(=O)oc2c1", ">", 100],
  ["Cc1ccc(S(=O)(=O)NC(=O)Nc2ccc(S(N)(=O)=O)cc2S(N)(=O)=O)cc1", ">", 100],
  ["O=c1cc(-c2ccc(Cl)cc2)oc2cc(OCCCOc3ccc4c(=O)cc(-c5ccc(Cl)cc5)oc4c3)ccc12", ">", 100],
  ["CC(=O)[O][Hg][c]1ccccc1", "=", 0.487],
  ["O=C(c1ccccc1)c1nc2ccc(C(F)(F)F)cc2[n+]([O-])c1C(F)(F)F", "=", 52.5],
  ["COc1ccc(Cc2nccc3cc(OC)c(OC)cc23)cc1OC", ">", 100],
  ["CCOC(=O)c1ccc(-n2c(SCC)nc3sc(C)c(C)c3c2=O)cc1", ">", 100],
  ["O=C(CCCCCCSc1nc(-c2ccc(Cl)cc2)cc(-c2ccc(Cl)cc2)n1)NO", ">", 50],
  ["O=C(/C=C/c1ccc(O)c(O)c1O)OCCc1ccccc1", "=", 48.8],
  ["CCc1nc(Cl)nc(Cl)c1Cl", "=", 3.59],
  ["CSc1ccc(/C=C/c2ccnc3ccccc23)cc1", "=", 24.4],
  ["NNc1[nH]c(=S)[nH]c1C(N)=O", ">", 100],
  ["[N-]=[N+]=NC(CBr)c1cn([C@H]2C[C@H](O)[C@@H](CO)O2)c(=O)[nH]c1=O (some centres not stated)", ">", 100],
  ["Cc1cn(C2CC(N)C(C(=O)O)O2)c(=O)[nH]c1=O (configuration not stated)", ">", 100],
  ["c1ccc(C[n+]2cccc(-c3cc4ccccc4[nH]3)c2)cc1", "=", 40.5],
  ["COc1cc2c(cc1O)[C@@H]1Cc3c(cc(OC)c(OC)c3Oc3cc4c(cc3OC)CCN(C)[C@@H]4Cc3ccc(O)cc3)[C@H](C2)N1C", "=", 36.6],
  ["Cc1cc(C)nc(SC2=C(Nc3cccc(Cl)c3C)C(=O)N(Cc3ccccc3)C2=O)n1", ">", 160],
  ["Cn1c2cc(O)cc(O)c2c(=O)c2c([N+](=O)[O-])cccc21", ">", 100],
  ["COc1ccc(-c2c(-c3cc(OC)c4c(c3)OCO4)noc2N)cc1", "=", 13.7],
  ["C=C(Cl)C(=C)CCC(Cl)C(C)C (configuration not stated)", ">", 100],
  ["CN(CCCl)c1ccc(/C=C/C2=[N+](C)c3ccccc3C2(C)C)cc1", "=", 0.756],
  ["Cc1ccc(/C=C/C(=O)c2cc(CN(C)C)c(O)c(CN(C)C)c2)cc1", "=", 38.5]
]}
